Hello, the source for this data is the METLIN SMRT retention time set (Domingo-Almenara et al. 2019), in case you need it.

experiment: gradient 5% acetonitrile 3 min, to 50% in 2 min, to 85% in 15 min, held 3 min, 100 µL/min; conditions: column: Zorbax Extend-C18 2.1 x 50 mm; eluents: water / acetonitrile, 0.1% formic acid
measureName: RP-LC retention time (s)

For orientation, consider the following solved cases.
Cc1ccc(-c2ncc(NC(=O)C(C)(C)C)cn2)cc1 = 968
CCOC(=O)c1[nH]c(C)c(CCC(=O)N2CCCC(C(=O)NC3CCCCC3)C2)c1C (stereo not given) = 822
O=C(Nc1ccccc1)c1cnn2c1CCCC2 = 699
Cc1nc(-c2ccc(N3CCN(C(=O)c4ccc5c(c4)OCO5)CC3)nc2)sc1C = 813
COCc1nncn1C1CCN(S(=O)(=O)c2ccc(Cl)c(C)c2)CC1 = 765
COCc1nc2cccnc2n1C1CCN(C(=O)Nc2ccccc2Br)CC1 = 724

I. Cc1ccccc1NS(=O)(=O)c1cc2n(c1)CCN(CC(C)C)C2=O
II. CC(Oc1cc(O)c2c(=O)cc(-c3ccccc3)oc2c1)C(=O)c1ccccc1 (stereo not given)
Query :: Which value of RP-LC retention time is numerically greater: that of I or that of II ? Use the label to indicate which entry you chose.
Result :: II

A. Cc1ccc(CS(=O)(=O)N2CCc3nc(-c4ccc(F)cc4)ncc3C2)cc1
B. COc1ccc(CNC(=O)C2CCN(c3cnc4nccnc4c3)CC2)cc1OC
Query :: Task for the reader: decide whether A or B has the larger RP-LC retention time. Give the label under which the chosen entry appears.
Result :: A
(A: 1110 s, B: 633 s)

###

test: gradient 5% acetonitrile 3 min, to 50% in 2 min, to 85% in 15 min, held 3 min, 100 µL/min; conditions: column: Zorbax Extend-C18 2.1 x 50 mm; eluents: water / acetonitrile, 0.1% formic acid
measureName: RP-LC retention time (s)

COc1ccc(N2C(=O)CC(c3ccc(OC)c(OC)c3)CC2=O)cc1 = 780
CCc1nnc([C@@H]2CC(F)(F)CN2C(=O)Cn2nc(C)cc2C)o1 = 612
CC(NC(=O)c1cn(C)c2ncccc12)c1ccccn1 (stereo not given) = 552

1. COCCN1C(=O)c2ccccc2C(C(=O)NCCCN2CCC(C)CC2)C1c1cccs1 (stereo not given)
2. O=S(=O)(c1ccc(F)c(F)c1)N1CCc2nc(-c3ccc(Cl)cc3)ncc2C1
Query :: // task: argmin of RP-LC retention time over [ 1 , 2 ] Label of pick, please.
Result :: 1

a. CN1CCN(C(CNC(=O)c2ccc3c(c2)OCO3)c2ccc3c(c2)OCO3)CC1 (stereo not given)
b. CCc1ccccc1NC(=O)N1CC=C(c2cn(C(C)C)c3ncccc23)CC1
Query :: Please indicate which has the smaller reported RP-LC retention time: a , or b . Write the label of whichever entry you select.
Result :: a

I. O=C(CN1CCC2(CC1)N=C(c1ccc(Cl)cc1)C(=O)N2)Nc1ccc2c(c1)OCO2
II. CSc1cccc(NC(=O)C2CCN(S(=O)(=O)c3ccc(-c4noc(C5CC5)n4)cc3)CC2)c1
Query :: Pick one, I or II : lowest reported RP-LC retention time. Response format: the label of the selected entry.
Result :: I

###

assay: gradient 5% acetonitrile 3 min, to 50% in 2 min, to 85% in 15 min, held 3 min, 100 µL/min; conditions: column: Zorbax Extend-C18 2.1 x 50 mm; eluents: water / acetonitrile, 0.1% formic acid
measureName: RP-LC retention time (s)

Answered cases to consult:
CCN1CCN(c2ncc(N3CCC(C(=O)NCc4cccs4)CC3)cn2)CC1 = 603
CC(C)Cn1nc(CNC(=O)c2ccsc2)c2ccccc21 = 882
COC(=O)c1ccccc1NC(=O)Cn1c(-c2nonc2N)nc2ccccc21 = 993
Cc1oc(-c2[nH]ncc2C(=O)N2CCCC2)cc1S(=O)(=O)NCc1ccc(F)cc1F = 710
COCCN1CCn2cc(S(=O)(=O)Nc3ccc(C)cc3)cc2C1=O = 715

A. CCOc1ccc(/C=C/C(=O)Nc2nc(-c3ccc4c(c3)NC(=O)C(C)O4)cs2)cc1OC (centres undefined)
B. CN(C)c1ccc(CCCNC(=O)C2CC2)cc1
Query :: Consider A and B . Which of these has its RP-LC retention time at a higher number? // output: label of the selected item
Result :: A
